valueType: melting point

Please review the entries below; each comes with its answer.
# molecule, valueType, result
records = [
    ("CCOC(=O)Cc1c(CCc2ccc(O)cc2)oc2ccc(C#N)cc12", "melting point", "134 to 136 °C"),
    ("CCCCn1c(=O)c2c(NC)n[nH]c2n(CCCl)c1=O", "melting point", "270 to 272 °C"),
    ("O=C1C(=O)c2ccccc2C2=C1SCC1(CCN(C(=O)C=Cc3ccccc3Cl)CC1)O2", "melting point", "110 to 115 °C"),
    ("O=C1Nc2ccccc2C12COc1cc3c(cc12)CCO3 (stereo not given)", "melting point", "105 to 107 °C"),
    ("COc1ccc2ccc(N3C(=O)C4=C(SCCO4)C3=O)nc2n1", "melting point", "255 °C"),
    ("COC(=O)C1=C(C=O)NC(C)=C(C(=O)OCC(C)C)C1c1ccccc1C#N (stereo not given)", "melting point", "152 to 154 °C"),
    ("CCOC(=O)C(O)c1oc(-n2ccnc2C)nc1-c1ccc(Cl)cc1 (stereo not given)", "melting point", "197 to 198 °C"),
    ("CCCS(=O)(=O)c1ccc(NC(=O)CCCCCCCCCC=C(F)F)cc1", "melting point", "67 to 70 °C"),
]

Query string: Determine its reported melting point: CC12C=CC(=O)C=C1CCC1C2C(O)CC2(C)C1CCC2(O)C(O)C(=O)O (stereo not given)
Result string: 213 to 214 °C

Query string: Determine its reported melting point: O=C(Nc1ccc(-n2nc(-c3ccoc3)cc2Cl)cc1)c1ccncc1F
Result string: 165 to 166 °C

---

Recorded melting point by entry

# molecule, valueType, result
rows = [
    ("CCCCCCCCCC(O)CNCCCCCCNCC(O)CCCCCCCCC (configuration not stated)", "melting point", "123 to 129 °C"),
]

Query string: Determine its reported melting point: Cc1ccc(S(=O)(=O)N2[C@@H](Cc3nc(C4CC4)no3)CC[C@H]2c2ccc(F)cc2)cc1 (racemic)
Result string: 102 °C

Query string: Determine its reported melting point: CC(C)(C)c1cc(CCc2ccccc2NC(=O)NC2CCC(O)CC2)cc(C(C)(C)C)c1O (configuration not stated)
Result string: 202 to 203 °C

Query string: Determine its reported melting point: CCOC(=O)N1Cc2sc3ncn(CCN4CCN(c5ccccc5OC)CC4)c(=O)c3c2C1
Result string: 153 to 155 °C

---

valueType: melting point

# molecule, result
records = [
    ("CC(C)Cn1c(=O)n(C)c(=O)c2c(-c3ccsc3)c(Cc3ccccc3C(F)(F)F)sc21", "113 to 114 °C"),
    ("O=C(Cc1ccc(OCc2ccccc2)cc1)Nc1c(C(=O)O)oc2cc(-c3ccc(Cl)cc3)ccc12", "211 to 212 °C"),
    ("COC(=O)c1cc(C(=O)NN2CCCCC2)c2cc(Cc3ccc(F)cc3)cnc2c1O", "233 to 234 °C"),
]

With those in mind, consider the next molecule.
Query string: Determine its reported melting point: CC(C)C(=O)N(C(=O)OC(C)(C)C)C(CC(N)C(=O)OCc1ccccc1)C(N)=O (centres undefined)
Result string: 112 to 113 °C

---

Recorded melting point by entry

Please review the entries below; each comes with its answer.
# molecule, result
measured = [
    ("ON=C1Cc2ccccc2C=Cc2ccccc21", "191 to 192 °C"),
    ("CCCCCCC(C)(C)c1cc(OC)c(C2=C[C@@]3(C)CC[C@@H]2C3(C)C)c(OC)c1", "32 to 33 °C"),
    ("CN1C(=O)C(C(=O)Nc2cccc(C(F)(F)F)c2)S(=O)(=O)c2ccc(Cl)cc21 (stereo not given)", "196 to 200 °C"),
    ("COC(=O)c1cc2cccnc2cc1C(=O)OC", "101 to 102 °C"),
]

With those in mind, consider the next molecule.
Query string: Determine its reported melting point: O=[N+]([O-])c1ccc(NCCCn2ccnc2)cc1
Result string: 130 to 132 °C

---

Recorded melting point by entry

Please review the entries below; each comes with its answer.
# compound, melting point
data = [
    ("NC[C@H]1CCc2[nH]c3ccc(F)cc3c2C1", "121 to 123 °C"),
    ("Cc1ccccc1NC(=O)NC1N=C(c2ccccc2F)c2ccccc2N(CC(=O)N2CC3CCC(CC3)C2)C1=O (racemic)", "167 to 172 °C"),
    ("O=C1CCCN1C(=O)NCCn1cccn1", "62.5 to 63.5 °C"),
    ("O=C(O)COCC(=O)CCCCCCCCCC(=O)NONC(=O)O", "64 to 67 °C"),
]

Query string: Determine its reported melting point: CCOC(=O)c1cc2c(cc1OCC)C(=O)C=CC2=O
Result string: 60 to 62 °C

Query string: Determine its reported melting point: CCN(CC)C(=O)C1CCC2C3CNC4=CC(=O)C=CC4(C)C3CCC12C (stereo unspecified)
Result string: > 250 °C

---

Recorded melting point by entry

Please review the entries below; each comes with its answer.
# compound, melting point
measured = [
    ("CCC(=S)N1CCC[C@H]1C(=O)O", "123 to 124 °C"),
    ("CC1(C)Cc2cc(OCCO)c3c(c2C(c2ccccc2)=N1)CC(C)(C)O3", "90 to 92 °C"),
    ("Nc1nnc(-c2cc(Cl)cc(Cl)c2O)s1", "268 °C"),
]

Query string: Determine its reported melting point: CC(=O)/C=C(\C)c1ccc(-c2ccccc2F)cc1
Result string: 92 °C

Query string: Determine its reported melting point: NS(=O)(=O)c1ccc(Br)c(Br)c1
Result string: 169 to 171 °C

Query string: Determine its reported melting point: O=C(Nc1ccc(Cl)nc1)c1cc2cc(F)ccc2n1Cc1ccncc1
Result string: 244 to 246 °C

Query string: Determine its reported melting point: N=C(N)NCCCCOc1ccc2c(c1)CC(CCC(=O)O)C(=O)N2 (stereo unspecified)
Result string: 152 to 155 °C

Query string: Determine its reported melting point: Cc1cc(NC(=O)C(CS)CC(C)C)cc(C(=O)O)c1 (stereo unspecified)
Result string: 193 to 195 °C

Query string: Determine its reported melting point: Nc1cnc(F)c(Br)c1
Result string: 91 to 92 °C

Query string: Determine its reported melting point: O=C(OCCOCCOCCO)C(=O)c1ccc(OCCOc2ccc3ccccc3c2)cc1
Result string: 70 to 71 °C

Query string: Determine its reported melting point: CC(=O)Nc1ccc(C2=NN(C(=O)CCl)C(C)Cc3cc4c(cc32)OCO4)cc1 (stereo unspecified)
Result string: 138 to 140 °C

---

valueType: melting point

Please review the entries below; each comes with its answer.
# molecule, result
measured = [
    ("O=C(O)[C@@H]1CCCN1S(=O)(=O)CCS", "99 to 101 °C"),
    ("COc1ccc(C=CC2=NNC(C)Cc3cc4c(cc32)OCO4)cc1OC (stereo not given)", "166 to 168 °C"),
]

Query string: Determine its reported melting point: CCc1cc(C=CN2C(=O)c3ccccc3C2=O)c(=O)[nH]c1C
Result string: 296 to 298 °C

Query string: Determine its reported melting point: CCn1cc(C(=O)O)c(=O)cc1-c1ccc(N(C)C)cc1
Result string: 258 to 259 °C

Query string: Determine its reported melting point: CONC(=O)Cc1ccccc1Nc1c(Cl)cccc1Cl
Result string: 177 to 178 °C

Query string: Determine its reported melting point: COC(=O)c1cc(OC)c(Br)c(OC)c1
Result string: 120 to 122 °C

Query string: Determine its reported melting point: CCn1nc(OCCCc2ccc(OCCOC)cc2Oc2ncc(C(F)(F)F)cc2Cl)cc1CCC(=O)O
Result string: 101 to 103 °C

Query string: Determine its reported melting point: O=C1Nc2cccnc2N(CCCCCCN2CCCCC2)c2ccccc21
Result string: 131 to 132 °C

Query string: Determine its reported melting point: CCOC(C[C@@H](CO)Cn1cnc2c(Cl)nc(N)nc21)OCC
Result string: 156 to 158 °C

Query string: Determine its reported melting point: Cn1nc(C(F)(F)F)cc1O
Result string: 170 to 173 °C

Query string: Determine its reported melting point: COCOc1cc(F)ccc1-c1cc(-c2cccc(N)c2)c(C#N)c(NC(=O)c2ccco2)n1
Result string: 204 to 206 °C

Query string: Determine its reported melting point: O=C(O)C1CSC(c2ccccc2F)N1 (mixture of isomers)
Result string: 147 °C

Query string: Determine its reported melting point: O=C(O)CCc1cn(Cc2ccc3cc(OCc4ccccc4F)ccc3c2)cc1-c1ccccc1
Result string: 143 to 144 °C

Query string: Determine its reported melting point: Cc1cc(C)cc(N(CCCC(N)=O)Cc2ccc3nc(NCCCN4CCOCC4)n(Cc4cccc(Br)n4)c3c2)c1
Result string: 82 °C

Query string: Determine its reported melting point: COC(=O)c1cncc(NC(=O)C(C)CS)c1 (stereo not given)
Result string: 96 to 97 °C

Query string: Determine its reported melting point: CC(=O)NC1CCN(CCCOc2ccc3c4c(c(=O)oc3c2)CCCC4)CC1
Result string: 90 to 92 °C

Query string: Determine its reported melting point: CCOc1nc(C(F)(F)F)cc(=O)n1-c1cc(O)c(Br)cc1F
Result string: 160 to 161 °C

Query string: Determine its reported melting point: COC(=O)[C@H](Cc1cccc2ccccc12)NC(=O)[C@H](CC(=O)OC(C)(C)C)NC(=O)c1cccc(N)c1
Result string: 70 to 72 °C

Query string: Determine its reported melting point: O=C(NNC(=O)c1occ(-c2ccccc2)c1-c1ccccc1)c1ccsc1
Result string: 195 to 197 °C

Query string: Determine its reported melting point: CC(C)OP(=O)(/C=C/CCn1cnc2c(Cl)ncnc21)OC(C)C
Result string: 105 °C
